Provenance of the data: the supplement of paper PMC8728848

molecular target: Fuc(a1-2)Gal(b1-4)[Fuc(a1-3)]GlcNAc(b1-3)Gal(b1-4)[Fuc(a1-3)]GlcNAc(b1-3)Gal(b1-4)[Fuc(a1-3)]GlcNAc; test: glycan array binding signal (z-score within array); higher = stronger binding; settings: glycan notation: IUPAC condensed, linker removed
The full list was thinned out, with the strongest signals kept by preference.

{"binder": "AFL (Aspergillus fumigatus), Q4WW81 (protein) STPGAQQVLFRTGIAAVNLTNHLRVYFQDVYGSIRESLYEGSWANGTEKNVIGNAKLGSPVAATSKELKHIRVYTLTEGNTLQEFAYDSGTGWYNGGLGGAKFQVAPYSRIAAVFLAGTDALQLRIYAQKPDNTIQEYMWNGDGWKEGTNLGGALPGTGIGATSFRYTDYNGPSIRIWFQTDDLKLVQRAYDPHKGWYPDLVTIFDRAPPRTAIAATSFGAGNSSIYMRIYFVNSDNTIWQVCWDHGKGYHDKGTITPVIQGSEVAIISWGSFANNGPDLRLYFQNGTYISAVSEWVWNRAHGSQLGRSALPPA", "glycan array binding signal (z-score)": 4.31}
{"binder": "LngA (Escherichia coli) (protein) MLSVYNRTQKFKAEARKKIAKYHELRKQRGMSLLEVIIVLGIIGTIAAGVVILAQRAFDSRAVTDLVTNTNTVRVRMKDAYQRDGKYPDFVDPLSLTANTIKTDTSGIPAAQLVQLGKITPDEVRNNISGDFIAIGGALTSNGAQVKKGFAIELNGLSQEQCRSILGQVGNNWEYVAIGTSASGSYAMTATGVDMSVAASTTVLRSLGNNGQTTLTADKILSTCTAQVNSITLGSR", "glycan array binding signal (z-score)": -0.414}
